B1: CAMK2B (parent)
chain: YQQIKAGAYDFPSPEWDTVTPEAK

variants of: B1; test: protein stability index of a GFP-peptide fusion (GPS, HEK-293T) (PSI 1-6); higher = more stable; conditions: c terminus: a fixed tail appended;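 note: lentivirally expressed fusions sorted by FACS into six bins by GFP to DsRed ratio, PSI derived from sequencing read proportions per bin multiplied by bin number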
Criterion: protein stability index meeting or surpassing 3. Met: Condition met. Not met: Condition not met.

Example entries and their recorded answers appear below.
P14W = Condition not met
Y1D = Condition met
W16P = Condition met
P12G = Condition met
A23V = Condition met
D10M = Condition not met
K24Q = Condition met
I4K = Condition met
Q3E = Condition met
I4W = Condition not met

Request: Is protein stability index for Q2T at or above 3?
Result: Condition met

Request: Is protein stability index for D17E at or above 3?
Result: Condition met

Request: Is protein stability index for D17F at or above 3?
Result: Condition not met

Request: Is protein stability index for D17Q at or above 3?
Result: Condition met
